Endpoint: melting point

Study these solved cases before continuing.
>  <Compound>
CCOC(=O)c1cn(C2CC2)c2cc(Br)c(F)cc2c1=O

>  <Endpoint>
melting point

>  <Result value>
251 to 253 °C

$$$$
>  <Compound>
O=C(O)CCCCCCCn1cc(-c2ccccc2)c(-c2ccccc2)nc1=O

>  <Endpoint>
melting point

>  <Result value>
121 to 123 °C

$$$$
>  <Compound>
CCOC(=O)N1CCCC2(OCCO2)C1Cc1c[nH]c2ccccc12 (stereo not given)

>  <Endpoint>
melting point

>  <Result value>
122 to 125 °C

$$$$

### Prompt Would you mind telling me what melting point value was observed for `COc1cc(C)c2c(c1)CCN2c1nc(Cl)cn(CCSC)c1=O` ?
### Response 111 to 113 °C

### Prompt Would you mind telling me what melting point value was observed for `O=C(O)c1ccccc1-c1c2ccc(=O)cc-2oc2cc(O)ccc12` ?
### Response 185 to 190 °C

### Prompt Would you mind telling me what melting point value was observed for `COc1ccc(C2=NN(C3CCN(C(=O)CCSCCN)CC3)C(=O)[C@@H]3CC=CC[C@H]23)cc1OC` ?
### Response 137 to 139 °C

### Prompt Would you mind telling me what melting point value was observed for `Cc1cc(NC(=O)C2=C(O)c3ccccc3N(c3ccccc3)C2)no1` ?
### Response 148 to 150 °C

### Prompt Would you mind telling me what melting point value was observed for `c1csc(-c2nc(COc3ccc(CCCn4ccnc4)cc3)co2)c1` ?
### Response 84 to 85 °C

### Prompt Would you mind telling me what melting point value was observed for `C=CCn1c(=O)c2c(nc(/C=C/c3ccc(OC(C)=O)c(OC)c3)n2C)n(CC=C)c1=O` ?
### Response 207 to 208 °C

### Prompt Would you mind telling me what melting point value was observed for `COc1cc(OC)c(NC(=O)CBr)c(OC)c1` ?
### Response 160 to 161 °C

====

Items are presented alongside their recorded melting point.
Residues, ends and D or L forms follow the SMILES beside them. *: point of attachment. Boc = CC(C)(C)OC(=O)*

>  <Compound>
CCOC(=O)Nc1cnc(NCCCOc2cccc(CN3CCCCC3)c2)[nH]c1=O

>  <melting point>
171 to 173 °C

$$$$
>  <Compound>
NNc1ccc(Cl)c(Cl)c1Cl

>  <melting point>
138 to 140 °C

$$$$
>  <Compound>
CO[C@H]1c2ccn3c(C)c(C)nc3c2N[C@H](c2ccccc2)[C@H]1O

>  <melting point>
108 to 110 °C

$$$$
>  <Compound>
CCc1nc2c(C)cc(C)cc2n1-c1ccc(CCNC(=O)NS(=O)(=O)c2ccc(C)cc2)cc1

>  <melting point>
108 to 112 °C

$$$$
>  <Compound>
COC(=O)c1cc2cc(C=O)c3ccccc3c2s1

>  <melting point>
208 °C

$$$$
>  <Compound>
C=C(C)C(=O)NC(=O)NCc1ccccc1

>  <melting point>
96 to 98 °C

$$$$
>  <Compound>
C#Cc1cncc(C2CCC(=O)N2C)c1 (stereo not given)

>  <melting point>
83 to 84 °C

$$$$
>  <Compound>
COc1cc(Nc2c(C#N)cnc3cc(I)sc23)c(Cl)cc1Cl

>  <melting point>
233 to 234 °C

$$$$
>  <Compound>
c1ccc2[nH]c(-c3ccsc3)cc2c1

>  <melting point>
212 to 214 °C

$$$$
>  <Compound>
N#CCCNC(=S)C1=CC(CF)(CF)Oc2ccc(C(F)(F)C(F)(F)F)cc21

>  <melting point>
108 to 109 °C

$$$$

### Prompt Would you mind telling me what melting point value was observed for `CC(C)C[C@@H](C=O)NC(=O)[C@H](Cc1c[nH]cn1)NC(=O)[C@H](Cc1ccccc1)NC(=O)CCCc1ccccc1` ?
### Response 98 to 103 °C

### Prompt Would you mind telling me what melting point value was observed for COC(=O)C=CC(CNC(=O)C(C)(Cc1c[nH]c2ccccc12)NC(=O)OC1C2CC3CC(C2)CC1C3)c1ccccc1 (stereo not given) ?
### Response 80 to 93 °C

### Prompt Would you mind telling me what melting point value was observed for CCOC(=O)C1=Cc2cc(C#C[Si](C)(C)C)ccc2NC1C(F)(F)F (stereo not given) ?
### Response 117 to 119 °C

### Prompt Would you mind telling me what melting point value was observed for `COc1cc(C=CC(=O)c2ccccc2)ccc1O` ?
### Response 87 to 88 °C

### Prompt Would you mind telling me what melting point value was observed for `COc1ccc(C#N)c(ON=C(C)C)c1` ?
### Response 78 to 79 °C

### Prompt Would you mind telling me what melting point value was observed for O=C1c2ccccc2CN1C1CCN(c2ccc(C(OCc3ccncc3)c3ccccc3)cc2)CC1 (stereo not given) ?
### Response 77 to 81 °C

### Prompt Would you mind telling me what melting point value was observed for CSCCC(NC(=O)C(CC(C)C)NC(=O)CNC(=O)C(NC(=O)C(Cc1ccccc1)NC(=O)C(C)NC(=O)OC(C)(C)C)C(C)C)C(=O)O (stereo not given) (Boc-AFVGLM-OH; configuration not given here) ?
### Response 252 to 281 °C
